// values below are reported pIC50
Measured on: Human LBAT (Homo sapiens)
Construct: expressed in transfected cells; Geneticin-selected
Sequence (Q14973 whole entry): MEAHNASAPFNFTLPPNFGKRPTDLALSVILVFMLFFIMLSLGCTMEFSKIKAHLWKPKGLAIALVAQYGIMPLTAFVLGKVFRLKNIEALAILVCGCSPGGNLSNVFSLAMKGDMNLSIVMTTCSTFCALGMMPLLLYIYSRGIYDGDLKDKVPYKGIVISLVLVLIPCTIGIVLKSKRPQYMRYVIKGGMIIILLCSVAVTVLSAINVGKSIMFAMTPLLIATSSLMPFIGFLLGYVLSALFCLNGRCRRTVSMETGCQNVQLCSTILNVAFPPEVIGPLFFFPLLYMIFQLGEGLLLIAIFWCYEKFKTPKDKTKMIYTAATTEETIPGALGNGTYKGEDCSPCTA
Assay explanation: LBAT (h/m) assay, human LBAT-overexpressing cells, 3H-taurocholic acid uptake
Assay type: cell-based
Experimental conditions: 0.3 μM 3H-taurocholic acid and 7.5 μM cold taurocholic acid, 20 minutes, read-out: hLBAT IC50
pIC50: −log10 of the molar value.
Observation type: pIC50

{"columns": ["Compound", "Observation type", "Observed value"],
 "data": [
  ["CCCCC1(C)CN(c2ccccc2)c2cc(SC)c(OCC(C)(O)C(=O)O)cc2S(=O)(=O)C1 (single isomer, unassigned) [33, diastereomer 1]", "pIC50", 5.23],
  ["CCCCC1(CCCC)CN(c2ccccc2)c2cc(Br)c(OCCC(=O)O)cc2S(=O)(=O)C1 [Example 4]", "pIC50", 6.43],
  ["CCCCC1(CC)CN(c2ccccc2)c2cc(SC)c(OCC(C)(F)C(=O)O)cc2S(=O)(=O)C1 (single isomer, unassigned) [35, diastereomer 2]", "pIC50", 6.86],
  ["CCCCC1(C)CN(c2ccccc2)c2cc(SC)c(OCCC(=O)O)cc2S(=O)(=O)C1 (single isomer, unassigned) [Example 24]", "pIC50", 6.22],
  ["CCCCC1(CC)CN(c2ccccc2)c2cc(SC)c(OCC(O)C(=O)O)cc2S(=O)(=O)C1 (single isomer, unassigned) [40, diastereomer 1]", "pIC50", 5.86],
  ["CCCCC1(CCCC)CN(c2ccccc2)c2cc(SC)c(OCC(C)(O)C(=O)O)cc2S(=O)(=O)C1 (single isomer, unassigned) [Example 20]", "pIC50", 5.86]
]}

The reported measurements were obtained from patent US11773071B2.
